Source listed as ChEMBL document CHEMBL1201862.

# Tested on: HOP-62
# PROTOCOL_SUMMARY: NCI tumour cell line growth inhibition, 48 h
The source made the active and inactive calls. Rule as the data show it: active = GI50 up to about 1.1 µM and inactive = higher.
Outcome (select one): 1.0 = active, 0.0 = inactive

Check out these entries, answers already filled in.
Cc1nc2[nH]ncn2c(=O)c1CCO    0.0
O=C1NC(N2CCCC(CO)C2)=N/C1=C\c1ccc(Cl)cc1 (stereo unspecified)    0.0
CCCc1nc(N)nc(C(=O)Nc2cccc(C(F)(F)F)c2)c1CC    0.0
NC1C2C(CC(=O)O)OCC=C3CN4CCC1(C(=O)C(=O)O)C4CC32 (stereo unspecified)    0.0
Cc1c2ccnc(C(=O)NCCN(C)C)c2cc2c3cc(O)ccc3n(C)c12    1.0

[in] Entry COC1=C(C)C(=O)C2=C(C1=O)C1C3CC4=C(C(=O)C(OC)=C(C)C4=O)C(CNC(=O)C(C)=O)N3C(C#N)C(C2)N1C (stereo unspecified) : call = ?
[out] 1.0

[in] What is the recorded call for this molecule in the test? CCCCC(C(=O)NCCNC(=O)CCC(=O)N(C)O)C(=O)NCCNC(=O)CCC(=O)N(C)O
[out] 0.0

[in] // return assay outcome for O=C1COc2cc3c(cc2N1)SCC(=O)N3
[out] 0.0

[in] Recorded call for Cn1cc2ccccc2c1-c1nc(F)nc(Oc2ccc3c(c2)CC[C@@H]2C3CC[C@]3(C)C(O)CCC23)n1 (stereo partly specified) ?
[out] 0.0

[in] Outcome logged for O=C(OCCOCBr)c1ccccc1 in this assay:
[out] 0.0

[in] Assay outcome for CCOC(=O)NN(C(=O)OCC)C(=C(C1=CCCCC1)N1CCOCC1)N(NC(=O)OCC)C(=O)OCC : what was it?
[out] 0.0

---

# System: SNB-19
# PROTOCOL_SUMMARY: NCI tumour cell line growth inhibition, 48 h
The source made the active and inactive calls. No stated cut-off is given here; in the data, active = GI50 up to about 1.1 µM and inactive = higher.
// allowed return values: t (active), f (inactive)

Record excerpt, results attached:
COCn1c(C)c(C)c2c(=O)oc(=O)[nH]c21    f
CCCCCCCCCCCC1=NCCN1    f
COc1cc(OC)c2nc(C)c3c(c2c1)NCC3    f
O=C(O)CCNS(=O)(=O)c1ccc2ccccc2c1    f
C/C(=N\NC(N)=O)c1sc(-c2nc(C)c(/C(C)=N/NC(N)=O)s2)nc1C    f
Cc1ccc(C2SCC(=O)N2c2ccc(-c3ccc(-n4c(-c5ccccc5)nc5ccccc5c4=O)cc3)cc2)cc1 (configuration not stated)    f
CCC(C)C1NC(=O)C(NC(=O)C(CC(C)C)N(C)C(=O)[C@@H]2C=CCN2C(=O)[C@H](C)O)C(C)OC(=O)[C@H](Cc2ccc(OC)cc2)N(C)C(=O)[C@@H]2CCCN2C(=O)[C@H](CC(C)C)NC(=O)C(C)C(=O)[C@H](C(C)C)OC(=O)CC1O (some centres not stated)    t
COc1cc2c(cc1O)CCN[C@@]21CS[C@H]2c3c(OC(C)=O)c(C)c4c(c3C(COC1=O)N1C2C2NC(Cc3cc(C)c(OC)c(O)c32)[C@@H]1C#N)OCO4 (some centres not stated)    t
Nc1c(C(=O)O)nnc2ccc(Cl)cc12    f
CSCCOC(=O)C(=[N+]=[N-])c1ccc([N+](=O)[O-])cc1    f

[in] Please let me know the test result on file for O=C1c2scc(-c3ccccc3)c2-n2cccc21 .
[out] f

[in] Would you mind telling me which call this test gave CCOC1CC(=O)c2c(Br)sc(Br)c21 (configuration not stated) ?
[out] f

[in] How did this test come out for CCCCCCCCCC(O)CC(=O)c1c(O)cccc1O (configuration not stated) ?
[out] f

[in] Which outcome was assigned to CCOC(=O)/C=C(\C(=O)OCC)n1cc(Cl)c(=O)n(CC(=O)OCC)c1=O in this test?
[out] f

[in] Per the assay record, what outcome was assigned to NCCn1cnc2nc(NC(=O)c3ccccc3)[nH]c(=O)c21 ?
[out] f

[in] Hello, I am checking results. What call was entered for CCP(=O)(CC)C(Cl)(Cl)C(O)C(C)(C)C (configuration not stated) ?
[out] f

[in] Record lookup: outcome of this test for COC(=O)[C@@]1(C)/C(=N/NS(=O)(=O)c2ccc(C)cc2)CCC[C@@H]1C ?
[out] f

---

# System: SNB-75
# PROTOCOL_SUMMARY: NCI tumour cell line growth inhibition, 48 h
Active and inactive are the calls of the source. Cut-off read from the data, not from the text of the source: active = GI50 up to about 1.1 µM and inactive = higher.
OBSERVED_PROPERTY: GI50

Example entries begin here.
COc1ccc(C2C(C(=O)O)=C(COC(C)=O)Oc3cc4c(cc32)OCO4)c(OC)c1 (centres undefined)    > 100 µM (inactive)
CCN1C(=O)c2cc(OC)c(OC)cc2C(=O)C12OC(=O)c1cc3c(cc12)OCO3 (centres undefined)    23 µM (inactive)
CC(C)(C)C(=O)OCOP(=O)(OCOC(=O)C(C)(C)C)OCC1OC(n2ccc(=O)[nH]c2=O)C(N=[N+]=[N-])C1O (centres undefined)    1.42 µM (inactive)
O=C1CCCC2=C1C(c1ccc3c(c1)OCO3)Nc1ccc3ccccc3c12 (centres undefined)    > 100 µM (inactive)
CSCCOC(=O)C(=[N+]=[N-])c1ccc([N+](=O)[O-])cc1    > 100 µM (inactive)

For each of the items listed, what is its GI50?
1. NNC(=O)c1nn[nH]c1SSc1[nH]nnc1C(=O)NN
2. COC(=O)C(C(=O)C(=O)Nc1ccc(C)cc1C)c1csc(-n2nc(-c3ccccc3)cc2-c2ccccc2)n1 (centres undefined)
3. CC(=O)Nc1ccc(C(=O)N2N=C(C)/C(=C/c3ccccc3O)C2=O)cc1
4. Nc1ccc(C(=O)NN2C(=O)C(Cl)C2c2cc(Br)ccc2O)cc1 (centres undefined)

[out]
1. > 100 µM (inactive)
2. 6.37 µM (inactive)
3. > 100 µM (inactive)
4. > 100 µM (inactive)

---

# Tested on: NCI-H522
# PROTOCOL_SUMMARY: NCI tumour cell line growth inhibition, 48 h
Activity calls are given as the source filed them. Cut-off read from the data, not from the text of the source: active = GI50 up to about 1.1 µM and inactive = higher.
Answer with one of the outcomes YES (active), NO (inactive)

Worked set:
Cc1c(N(Cc2ccccc2)Cc2ccccc2)nc(S(C)(=O)=O)nc1S(C)(=O)=O    NO
CN(CCC(=O)O)S(=O)(=O)c1ccccc1    NO

Proceed to the following item.
[in] Write down the call the test reported for this molecule. Item: N=C(N)N/N=C/c1c(-c2ccc(Cl)cc2)nc2sc(Cl)cn12
[out] NO

---

Could you please report measured GI50 for the items listed next?
# Tested on: HOP-62
# PROTOCOL_SUMMARY: NCI tumour cell line growth inhibition, 48 h
The source made the active and inactive calls. Cut-off read from the data, not from the text of the source: active = GI50 up to about 1.1 µM and inactive = higher.

These recorded examples may help you get a feel for the data.
COc1cc(OC)c2nc(C)c3c(c2c1)SCC3    18.2 µM (inactive)
C[N+]1(CCC(=O)c2ccccc2)CCC2CCC(C2)C1 (stereo unspecified)    > 100 µM (inactive)
O=C(O)/C(=C\c1ccncc1)c1cccc2ccccc12    > 100 µM (inactive)
O=C(CSc1nccc(=O)[nH]1)c1ccccc1    63.1 µM (inactive)
COC(CC1(/C=C/O[Si](C(C)C)(C(C)C)C(C)C)C(=O)N(C)c2ccccc21)OC (stereo unspecified)    58.1 µM (inactive)

The following compounds each have a reported value; give each one's GI50.
1. CCOC(=O)c1c(O)nc(O)c(CC)c1C
2. Nc1ncc2c(n1)-c1ccccc1OC2N1CCCC1 (stereo unspecified)
3. COC(=O)/C=C/C(=O)C1C(C(=O)OC)C2(C(=O)OC)CCC1(C(=O)OC)N2 (stereo unspecified)
4. C/C(=N\NC(N)=O)c1sc(-c2nc(C)c(/C(C)=N/NC(N)=O)s2)nc1C
5. OCc1cn(C(c2ccccc2)(c2ccccc2)c2ccccc2)cn1

[out]
["> 100 µM (inactive)", "> 100 µM (inactive)", "> 100 µM (inactive)", "> 100 µM (inactive)", "44.5 µM (inactive)"]

[in] Entry under review: O=C(CCC(=O)Nc1ccc(Cl)c(Cl)c1)Cc1nc2ccccc2o1 . Reported GI50?
[out] > 100 µM (inactive)

---

# System: BT-549
# PROTOCOL_SUMMARY: NCI tumour cell line growth inhibition, 48 h
The source made the active and inactive calls. Rule as the data show it: active = GI50 up to about 1.1 µM and inactive = higher.
Assignment: determine reported GI50 for the given compounds.

Examples from the recorded data:
CCCOC(=O)c1cc(C(=CCC[C@H]2CC[C@@]3(C)[C@@H](CC[C@@H]4[C@@H]3CC[C@]3(C)[C@@H](C(C)CCCC(C)C)CC[C@@H]43)C2)c2cc(Cl)c(O)c(C(=O)OCCC)c2)cc(Cl)c1O (some centres undefined)    > 50 µM (inactive)
CC1(C)OCC(C2CCC3(C)C4=CCC5C(C)(C)C(O)CCC5(C)C4CCC23C)CC(O)C1O (centres undefined)    15.9 µM (inactive)
N=C(N)Nc1ccc(CC(N)C(=O)NCC(=O)C(CC(=O)O)c2ncc(NC(=O)C(F)(F)F)o2)cc1 (centres undefined)    > 25 µM (inactive)

// next item, GI50 requested
[in] Name the recorded GI50 for COc1ccc(-c2nc3ncccn3c2-c2ccc(S(C)(=O)=O)cc2)cc1 .
[out] > 100 µM (inactive)
